Molecular target: 5-HT2B receptor (Homo sapiens, UniProt P41595)
Construct: expressed in transfected cells; host or cells: HEK293T
Sequence (P41595 whole entry): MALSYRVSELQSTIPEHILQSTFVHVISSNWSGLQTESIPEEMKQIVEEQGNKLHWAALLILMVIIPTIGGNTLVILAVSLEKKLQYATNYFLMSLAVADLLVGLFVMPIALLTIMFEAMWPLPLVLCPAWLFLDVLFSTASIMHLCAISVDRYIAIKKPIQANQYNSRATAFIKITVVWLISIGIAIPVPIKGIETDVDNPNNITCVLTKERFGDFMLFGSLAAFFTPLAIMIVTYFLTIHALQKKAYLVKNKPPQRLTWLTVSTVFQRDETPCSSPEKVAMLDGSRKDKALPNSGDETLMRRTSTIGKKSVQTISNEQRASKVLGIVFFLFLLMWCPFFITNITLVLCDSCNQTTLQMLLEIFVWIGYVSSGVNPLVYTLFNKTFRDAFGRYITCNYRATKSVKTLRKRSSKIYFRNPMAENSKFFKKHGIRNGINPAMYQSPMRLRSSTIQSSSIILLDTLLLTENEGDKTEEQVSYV
Experiment: Serotonin receptor 5-HT2 functional assay (Gq dissociation BRET or Gq-dependent calcium flux), 5-HT2B
Type: cell-based
Conditions: Table 4; efficacy relative to 4-hydroxytryptamine; at least three replicate trials
assay_readout: 5-HT2B BRET Eff % (%)

> print(dat)
                                   compound      assay.readout  reported.measurement
1                Cc1cccc2c(CCN(C)C)c[nH]c12  5-HT2B BRET Eff %                    36
2  CN(C)CCc1c[nH]c2cccc(O)c12 [psilocin, reference compound]  5-HT2B BRET Eff %                    63
3            Cc1cc2c(c3c(CCN)c[nH]c13)CCCO2  5-HT2B BRET Eff %                    63

====

Measured 5-HT2C BRET Eff % of individual entries
Target: 5-HT2C receptor (Homo sapiens, UniProt P28335)
Construct: expressed in transfected cells; host or cells: HEK293T
Sequence (P28335 33-458): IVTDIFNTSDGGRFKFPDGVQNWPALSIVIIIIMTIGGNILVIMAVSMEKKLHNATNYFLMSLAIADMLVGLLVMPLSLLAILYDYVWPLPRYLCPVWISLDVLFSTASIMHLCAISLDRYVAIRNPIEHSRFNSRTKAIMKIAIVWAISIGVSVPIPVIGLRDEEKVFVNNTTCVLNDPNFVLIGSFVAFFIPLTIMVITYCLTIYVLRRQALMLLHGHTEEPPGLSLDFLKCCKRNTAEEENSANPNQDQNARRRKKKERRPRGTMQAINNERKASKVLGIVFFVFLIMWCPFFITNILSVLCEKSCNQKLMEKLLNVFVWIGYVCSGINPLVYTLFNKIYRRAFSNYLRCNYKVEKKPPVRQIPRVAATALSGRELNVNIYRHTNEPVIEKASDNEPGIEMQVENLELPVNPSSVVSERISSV
Assay: cell-based
Conditions: Table 4; efficacy relative to 4-hydroxytryptamine; at least three replicate trials
Structures can show the parent of a compound that is named as a salt.
assay_readout: 5-HT2C BRET Eff % (%)

> print(dat)
                                   compound  reported.measurement
1                Cc1cccc2c(CCN(C)C)c[nH]c12                    79
2        CN(C)CCc1c[nH]c2c(C(N)=O)ccc(O)c12                    69
3        Cc1ccc(O)c2c(C[C@H]3CCN3C)c[nH]c12                    66
4            Cc1cc2c(c3c(CCN)c[nH]c13)CCCO2                    96
5  Cc1ccc(OCc2ccc(C(F)(F)F)cc2)c2c(CCN(C)C)c[nH]c12                    81
6  CN(C)CCc1cn2c3c(cccc13)OCC2 [Compound 135, Hydrochloride]                    96
7           CN(C)CCc1c[nH]c2c(CCO)ccc(O)c12                    76

====

Molecular target: 5-HT2B receptor (Homo sapiens, UniProt P41595)
Construct: expressed in transfected cells; host or cells: HEK293T
Experiment: Serotonin receptor 5-HT2 functional assay (Gq dissociation BRET or Gq-dependent calcium flux), 5-HT2B
Assay type: cell-based
Conditions: Table 4; efficacy relative to 4-hydroxytryptamine; at least three replicate trials
Counter-ions that a name gives are not always drawn.
assay_readout: 5-HT2B BRET Eff %

> print(dat)
                                   compound      assay.readout  reported.measurement
1             Cc1ccc(O)c2c(CCN(C)C)c[nH]c12  5-HT2B BRET Eff %              inactive
2  CN(C)CCc1cn2c3c(cccc13)OCC2 [Compound 135, Hydrochloride]  5-HT2B BRET Eff %                   42%
3           CN(C)CCc1c[nH]c2c(CCF)ccc(O)c12  5-HT2B BRET Eff %              inactive
4            CCN(C)CCc1c[nH]c2c(C)ccc(O)c12  5-HT2B BRET Eff %              inactive
5             CN(C)CCc1c[nH]c2cc(F)cc(O)c12  5-HT2B BRET Eff %                   62%

====

Molecular target: 5-HT2B receptor (Homo sapiens, UniProt P41595)
Construct: expressed in transfected cells; host or cells: HEK293T
Test: Serotonin receptor 5-HT2 functional assay (Gq dissociation BRET or Gq-dependent calcium flux), 5-HT2B
Assay type: cell-based
Details: 5-HT2B BRET EC50 (nM), Table 4; relative to 4-hydroxytryptamine; at least three replicate trials
assay_readout: EC50 (nM)

> print(dat)
                                   compound  reported.measurement
1  CN(C)CCc1c[nH]c2cc(F)cc(O)c12 [Compound 36]                   4.2
2    Cc1cccc2c(CCN(C)C)c[nH]c12 [7,N,N-TMT]                    74
3  Cc1cc(O)c2c(CCN(C)C)c[nH]c2c1 [Compound 37]                   189

====

Target: other receptor sites (Homo sapiens, UniProt P28566)
Sequence (P28566 whole entry): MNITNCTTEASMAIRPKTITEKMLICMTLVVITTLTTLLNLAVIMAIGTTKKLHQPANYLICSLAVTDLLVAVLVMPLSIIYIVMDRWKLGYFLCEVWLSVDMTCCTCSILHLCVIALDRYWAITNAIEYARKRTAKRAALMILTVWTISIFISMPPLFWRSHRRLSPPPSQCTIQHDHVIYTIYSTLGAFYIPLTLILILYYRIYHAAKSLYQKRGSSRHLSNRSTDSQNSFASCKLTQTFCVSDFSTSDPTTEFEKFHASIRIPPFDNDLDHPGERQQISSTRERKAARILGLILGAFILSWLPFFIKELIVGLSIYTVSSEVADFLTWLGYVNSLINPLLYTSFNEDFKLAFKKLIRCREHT
Assay: Functional activity at other receptor sites relative to psilocin (Table 5), further receptors
Settings: read-out: 5-HT1E EC50, 5-HT1E receptor, compared with psilocin
assay_readout: EC50 (nM)

> print(dat)
                                   molecule  assay.readout  reported.measurement
1  Cc1ccc(O)c2c(CCN(C)C)c[nH]c12 [drawing 38]           EC50                   167

====

Molecular target: 5-HT2C receptor (Homo sapiens, UniProt P28335)
Construct: expressed in transfected cells; host or cells: HEK293T
Sequence (P28335 33-458): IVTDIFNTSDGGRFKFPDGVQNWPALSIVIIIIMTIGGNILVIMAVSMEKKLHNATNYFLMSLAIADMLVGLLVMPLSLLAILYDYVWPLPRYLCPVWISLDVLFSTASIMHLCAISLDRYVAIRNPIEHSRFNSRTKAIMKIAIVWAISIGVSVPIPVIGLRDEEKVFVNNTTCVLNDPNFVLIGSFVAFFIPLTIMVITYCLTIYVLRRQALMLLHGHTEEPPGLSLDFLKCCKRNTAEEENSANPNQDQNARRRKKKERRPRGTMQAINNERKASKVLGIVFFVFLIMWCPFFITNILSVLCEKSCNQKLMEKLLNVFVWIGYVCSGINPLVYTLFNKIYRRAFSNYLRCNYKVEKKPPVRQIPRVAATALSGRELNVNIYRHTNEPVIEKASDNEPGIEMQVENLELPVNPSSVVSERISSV
Assay: cell-based
Conditions: Table 4; relative to 4-hydroxytryptamine; at least three replicate trials; read-out: 5-HT2C BRET EC50
pEC50: −log10 of the molar value. Counter-ions that a name gives are not always drawn.
Measured pEC50 of individual entries
assay_readout: pEC50

> print(dat)
                                   molecule  reported.measurement
1        CN(C)CCc1c[nH]c2c(C(N)=O)ccc(O)c12                  5.00
2        Cc1ccc(O)c2c(C[C@H]3CCN3C)c[nH]c12                  8.14
3  CN(C)CCc1cn2c3c(cccc13)OCC2 [Compound 135, Hydrochloride]                  8.05
4           CN(C)CCc1c[nH]c2c(CCO)ccc(O)c12                  8.25
5                Cc1cccc2c(CCN(C)C)c[nH]c12                  7.93
6  Cc1ccc(OCc2ccc(C(F)(F)F)cc2)c2c(CCN(C)C)c[nH]c12                  6.88
7            Cc1cc2c(c3c(CCN)c[nH]c13)CCCO2                  7.16

====

Target: 5-HT2B receptor (Homo sapiens)
Construct: expressed in transfected cells; host or cells: HEK293T
Test: Serotonin receptor 5-HT2 functional assay (Gq dissociation BRET or Gq-dependent calcium flux), 5-HT2B
Format: cell-based
Conditions: Table 4; efficacy relative to 4-hydroxytryptamine; at least three replicate trials
assay_readout: 5-HT2B BRET Eff % (%)

> print(dat)
                                   compound  reported.measurement
1  Cc1cc(F)c(O)c2c(CCN(C)C)c[nH]c12 [Compound 30]                     8
2  Cc1cc(O)c2c(CCN(C)C)c[nH]c2c1 [Compound 37]                    41
